Every entry's value here was drawn from the supplement of paper PMC11061612.

- System: A2058 (Melanoma)
- ASSAY DETAILS: combination Emax (second highest fraction inhibited in the dose matrix, 72 h); higher = more inhibition; extreme values may be limits of the assay
RECORDED METRIC: combination Emax
The reply should be a number, written without any unit.

Answered cases to consult:
# COMPOUND, STUDY TARGET, ENDPOINT RESULT
records = [
    ("CC1(C)CCC(CN2CCN(c3ccc(C(=O)NS(=O)(=O)c4ccc(NCC5CCOCC5)c([N+](=O)[O-])c4)c(Oc4cnc5[nH]ccc5c4)c3)CC2)=C(c2ccc(Cl)cc2)C1 [Venetoclax] + CN(C)CCCOc1ccc(-c2ccc3ncc4c(c3c2)n(C2CCOCC2)c(=O)n4C)cn1 [AZD0156] (first compound max 1 µM, 7x7, partner max 1 µM)", "A2058 (Melanoma)", 0.226),
    ("C[C@@H](c1ccc2nccn2c1)n1nnc2ncc(-c3cnn(C)c3)nc21 [Savolitinib] + CC1(C)CCC(CN2CCN(c3ccc(C(=O)NS(=O)(=O)c4ccc(NCC5CCOCC5)c([N+](=O)[O-])c4)c(Oc4cnc5[nH]ccc5c4)c3)CC2)=C(c2ccc(Cl)cc2)C1 [Venetoclax] (first compound max 1 µM, 7x7, partner max 1 µM)", "A2058 (Melanoma)", 0.107),
    ("NC1(C(=O)N[C@@H](CCO)c2ccc(Cl)cc2)CCN(c2ncnc3[nH]ccc23)CC1 [Capivasertib] + C[C@@H]1COCCN1C2=NC(=NC(=C2)C3(CC3)[S@](=N)(=O)C)C4=C5C=CNC5=NC=C4 [AZD6738] (first compound max 10 µM, 7x7, partner max 10 µM)", "A2058 (Melanoma)", 0.805),
    ("CN(CCO)CC[C@H](CSc1ccccc1)Nc1ccc(S(=O)(=O)NC(=O)c2ccc(N3CCC([C@@H](O)c4ccccc4-c4ccc(Cl)cc4)CC3)cc2)cc1S(=O)(=O)C(F)(F)F [AZD4320] + C=CCn1c(=O)c2cnc(Nc3ccc(N4CCN(C)CC4)cc3)nc2n1-c1cccc(C(C)(C)O)n1 [AZD1775] (first compound max 1 µM, partner max 1 µM)", "A2058 (Melanoma)", 0.355),
    ("CN(CCO)CC[C@H](CSc1ccccc1)Nc1ccc(S(=O)(=O)NC(=O)c2ccc(N3CCC([C@@H](O)c4ccccc4-c4ccc(Cl)cc4)CC3)cc2)cc1S(=O)(=O)C(F)(F)F [AZD4320] + Cc1cc2ncnn2cc1Nc1ncc2c(n1)n(C1CCOCC1)c(=O)n2C [AZD7648] (first compound max 1 µM, 7x7, partner max 10 µM)", "A2058 (Melanoma)", 0.0867),
]

-- ask Report combination Emax for CS(=O)(=O)CCNCc1ccc(-c2ccc3ncnc(Nc4ccc(OCc5cccc(F)c5)c(Cl)c4)c3c2)o1 [Lapatinib] + NC1(c2ccc(-c3nc4ccn5c(=O)[nH]nc5c4cc3-c3ccccc3)cc2)CCC1 [MK-2206] (first compound max 10 µM, 7x7, partner max 10 µM)
-- reply 0.982

-- ask Report combination Emax for CN(C)CCCOc1ccc(-c2ccc3ncc4c(c3c2)n(C2CCOCC2)c(=O)n4C)cn1 [AZD0156] + CCN(CCO)CCCOc1ccc2c(Nc3cc(CC(=O)Nc4cccc(F)c4)[nH]n3)ncnc2c1 [AZD2811] (first compound max 1 µM, 7x7, partner max 1 µM)
-- reply 0.0924

-- ask Report combination Emax for NC1(C(=O)N[C@@H](CCO)c2ccc(Cl)cc2)CCN(c2ncnc3[nH]ccc23)CC1 [Capivasertib] + CC(=O)c1c(C)c2cnc(Nc3ccc(N4CCNCC4)cn3)nc2n(C2CCCC2)c1=O [Palbociclib] (first compound max 10 µM, 7x7, partner max 10 µM)
-- reply 0.638

-- ask Report combination Emax for CN(CCO)CC[C@H](CSc1ccccc1)Nc1ccc(S(=O)(=O)NC(=O)c2ccc(N3CCC([C@@H](O)c4ccccc4-c4ccc(Cl)cc4)CC3)cc2)cc1S(=O)(=O)C(F)(F)F [AZD4320] + C[C@@H]1COCCN1C2=NC(=NC(=C2)C3(CC3)[S@](=N)(=O)C)C4=C5C=CNC5=NC=C4 [AZD6738] (first compound max 1 µM, 7x7, partner max 10 µM)
-- reply 0.782

-- ask Report combination Emax for C=CCn1c(=O)c2cnc(Nc3ccc(N4CCN(C)CC4)cc3)nc2n1-c1cccc(C(C)(C)O)n1 [AZD1775] + O=C(c1cc(Cc2n[nH]c(=O)c3ccccc23)ccc1F)N1CCN(C(=O)C2CC2)CC1 [Olaparib] (first compound max 1 µM, partner max 10 µM)
-- reply 0.284
